Several reports have described IC50 for Cytochrome P450 2C19 (Homo sapiens, UniProt P33261); a selection of those results is presented here.

Ask: API: value(readout=IC50, system=Cytochrome P450 2C19 (Homo sapiens, UniProt P33261)) for record Cc1cc(C#N)cnc1C(=O)Nc1cccc([C@@]2(C)N=C(N)S[C@H](C)[C@@H]2F)c1
Reply: ≥ 20 µM

Ask: API: value(readout=IC50, system=Cytochrome P450 2C19 (Homo sapiens, UniProt P33261)) for record COc1ccc(Nc2ccc(C(=O)c3c[nH]c4ncnc(NCc5ccc(C(F)(F)F)nc5)c34)c(F)n2)cn1
Reply: > 10 µM

Ask: API: value(readout=IC50, system=Cytochrome P450 2C19 (Homo sapiens, UniProt P33261)) for record CO[C@H]1[C@@H](C)SC(N)=N[C@]1(C)c1cc(NC(=O)c2cnc(OCF)cn2)ccc1F
Reply: ≥ 20 µM

Ask: API: value(readout=IC50, system=Cytochrome P450 2C19 (Homo sapiens, UniProt P33261)) for record Cc1ncccc1Oc1cc(=O)n(C)c(Nc2ccc(I)cc2F)c1C(N)=O
Reply: > 10 µM

Ask: API: value(readout=IC50, system=Cytochrome P450 2C19 (Homo sapiens, UniProt P33261)) for record O=C1COc2cc(NCc3cccc(C(=O)Nc4ccccc4O)c3)ccc2N1
Reply: 7.6 µM

====

Several reports have described IC50 for Cytochrome P450 2C19 (Homo sapiens, UniProt P33261); a selection of those results is presented here.

> print(dat)
                                        mol    observed
1  CCCCOCCOc1ccc(-c2ccc3c(c2)/C=C(/C(=O)Nc2ccc([S@@+]([O-])Cc4c(C)ncn4CC)cc2)CCCN3CC2CCOCC2)cc1     > 50 µM
2  FC1(F)CCC(Nc2ncc(Cc3c[nH]c4ncc(Cl)cc34)cn2)CC1  5 to 10 µM
3  CC#CC(=O)N1CC[C@@H](n2c(=O)n(-c3ccc(Oc4ccccc4)cc3)c3c(N)ncnc32)C1     > 10 µM

Would you kindly look at the next entry?
Ask: Consider the molecule shown here: C[C@@H](c1ccccc1-c1ccc(F)cc1)n1cncc1C(=O)N1CCC(N2CCc3nccnc3C2)CC1 What is its recorded IC50?
Reply: > 10 µM

====

pIC50: −log10 of the molar value.
Several reports have described pIC50 for Cytochrome P450 2C19 (Homo sapiens); a selection of those results is presented here.

> print(dat)
                                        mol                         study.target  observed
1  C[C@@H](c1ccccc1-c1ccc(F)cc1)n1cncc1C(=O)N1CC[C@@H](N2CCC(O)CC2)[C@@H](F)C1  Cytochrome P450 2C19 (Homo sapiens)    < 5.00
2  [2H]C([2H])([2H])Oc1cnc(C(=O)Nc2ccc(F)c([C@@]3(C)N=C(N)S[C@H](C)[C@@H]3F)c2)cn1  Cytochrome P450 2C19 (Homo sapiens)    ≤ 4.70
3  CN1C(=O)N(c2cccc(C(F)(F)F)c2)C2=C(C(=O)CC2)[C@H]1c1ccc(C#N)cc1C(N)=O  Cytochrome P450 2C19 (Homo sapiens)    < 4.30
4  [2H]C([2H])(Oc1cccc(O)c1C=O)c1cncnc1-c1ccnn1C(C)C  Cytochrome P450 2C19 (Homo sapiens)      5.06
5  O=C(O)[C@@H]1CCCN(S(=O)(=O)c2ccccc2C(F)(F)F)C1  Cytochrome P450 2C19 (Homo sapiens)    < 4.30
6  COc1ccnc(Oc2ccc(/N=c3\[nH]c(=O)n(C[C@H](C)C(=O)O)c(=O)n3Cc3ccc(Cl)cc3)cc2)c1  Cytochrome P450 2C19 (Homo sapiens)    < 4.70

Would you kindly look at the next entry?
Ask: API: value(readout=pIC50, system=Cytochrome P450 2C19 (Homo sapiens)) for record C[C@H](c1ccc(F)cc1)n1cncc1CC1(CO)CCN(S(=O)(=O)c2cnc(N3CCN(C)CC3)s2)CC1
Reply: < 5.00
